Data provenance is PubChem BioAssay (EPA / NIEHS).

# measurement target: Hypoxia-inducible factor 1-alpha (Homo sapiens) (UniProt Q16665)
# Sequence (Q16665 whole entry, looked up): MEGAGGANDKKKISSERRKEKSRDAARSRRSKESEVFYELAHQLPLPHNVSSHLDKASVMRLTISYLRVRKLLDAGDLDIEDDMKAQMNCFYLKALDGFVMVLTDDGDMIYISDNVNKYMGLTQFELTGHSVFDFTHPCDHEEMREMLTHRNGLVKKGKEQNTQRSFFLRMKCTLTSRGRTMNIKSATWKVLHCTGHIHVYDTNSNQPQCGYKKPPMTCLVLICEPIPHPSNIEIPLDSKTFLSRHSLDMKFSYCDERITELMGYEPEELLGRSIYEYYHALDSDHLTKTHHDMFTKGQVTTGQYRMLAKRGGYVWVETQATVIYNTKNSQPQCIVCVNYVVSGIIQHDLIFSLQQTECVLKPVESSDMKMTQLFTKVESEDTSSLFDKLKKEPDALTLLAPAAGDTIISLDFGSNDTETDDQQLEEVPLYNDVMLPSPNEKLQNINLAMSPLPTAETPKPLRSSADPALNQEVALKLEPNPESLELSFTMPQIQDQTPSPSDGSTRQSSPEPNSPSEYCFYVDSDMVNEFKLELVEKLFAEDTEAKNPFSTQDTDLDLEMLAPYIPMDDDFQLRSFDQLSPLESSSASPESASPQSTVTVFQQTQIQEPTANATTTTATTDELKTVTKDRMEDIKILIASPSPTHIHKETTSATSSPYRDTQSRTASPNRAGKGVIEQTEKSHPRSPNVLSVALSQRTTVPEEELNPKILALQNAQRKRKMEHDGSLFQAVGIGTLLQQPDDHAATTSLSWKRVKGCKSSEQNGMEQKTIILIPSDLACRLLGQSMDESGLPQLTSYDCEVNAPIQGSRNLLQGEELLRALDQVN
# procedure text: ATG_HIF1a_CIS: Attagene CIS-FACTORIAL HepG2 Assay for human Hypoxia Inducible Factor 1 (HIF1A) (AID 2282951)
# setup conditions: HepG2 Attagene cis-factorial HIF1a reporter transcription; actives raise or lower the signal
# Experimental: ATG_CIS is a cell-based, multiplexed-readout assay that uses HepG2, a human liver cell line, with measurements taken at 24 hours after chemical dosing in a 24-well plate.ATG_HIF1a_CIS is one of 52 assay component(s) measured or calculated from the ATG_CIS assay. […] This assay endpoint, ATG_HIF1a_CIS, was analyzed with bidirectional fitting relative to DMSO as the negative control and baseline of activity. […]
Activity calls are given as the source filed them. How the source made its calls: active means hit-call score of the fitted dose curve at least 0.9, where 1 is the maximum; inactive means score below 0.9.
Outcomes: active, inactive

{"smiles str": "IC(I)I", "measurement target": "Hypoxia-inducible factor 1-alpha (Homo sapiens) (UniProt Q16665)", "label": "inactive"}
{"smiles str": "CC(C)(C)OC(=O)c1ccc(O)cc1", "measurement target": "Hypoxia-inducible factor 1-alpha (Homo sapiens) (UniProt Q16665)", "label": "inactive"}
{"smiles str": "CCOC(=O)COC(=O)c1cc(Oc2ccc(C(F)(F)F)cc2Cl)ccc1[N+](=O)[O-]", "measurement target": "Hypoxia-inducible factor 1-alpha (Homo sapiens) (UniProt Q16665)", "label": "inactive"}
{"smiles str": "CCCCCCCCC=CCCCCCCCC1=NCCN1CCO", "measurement target": "Hypoxia-inducible factor 1-alpha (Homo sapiens) (UniProt Q16665)", "label": "inactive"}
{"smiles str": "CCOc1ccc(NC(=O)CC(C)=O)cc1", "measurement target": "Hypoxia-inducible factor 1-alpha (Homo sapiens) (UniProt Q16665)", "label": "active"}
{"smiles str": "NCCNc1cccc2ccccc12", "measurement target": "Hypoxia-inducible factor 1-alpha (Homo sapiens) (UniProt Q16665)", "label": "active"}
{"smiles str": "CCN(CCN)c1cccc(C)c1", "measurement target": "Hypoxia-inducible factor 1-alpha (Homo sapiens) (UniProt Q16665)", "label": "inactive"}

---

# procedure text: ATG_MRE_CIS: Attagene CIS-FACTORIAL HepG2 Assay for human Metal Responsive Element (MRE) (AID 2282954)
# setup conditions: HepG2 MRE cis-reporter transcription, Attagene multiplex; actives raise or lower the signal
The source made the active and inactive calls. The calls were made as follows: active = hit-call score of the fitted dose curve at least 0.9, where 1 is the maximum; inactive = score below 0.9.
Classes used: label 1 (active), label 0 (inactive)

{"compound": "C[C@H](CCC(=O)NCC(=O)O)[C@H]1CC[C@H]2[C@@H]3[C@H](O)C[C@@H]4C[C@H](O)CC[C@]4(C)[C@H]3C[C@H](O)[C@]12C", "label": "label 0"}
{"compound": "COC(=O)c1ccc([N+](=O)[O-])cc1", "label": "label 0"}
{"compound": "CC(C)CCOC(=O)c1ccccc1", "label": "label 0"}
{"compound": "CC(=O)C1(C)CC2=C(CCCC2(C)C)CC1C (configuration not stated)", "label": "label 1"}
{"compound": "COC(=O)c1ccc(C)cc1C1=NC(C)(C(C)C)C(=O)N1 (configuration not stated) (tested in a mixture with another compound)", "label": "label 0"}
{"compound": "c1ccc2[nH]cnc2c1", "label": "label 0"}
{"compound": "C=CC(=O)OCCCC", "label": "label 0"}
{"compound": "C=COCCOCCOC=C", "label": "label 0"}
{"compound": "Cc1ccc(OC(=O)c2ccccc2O)cc1", "label": "label 0"}
{"compound": "CSCCC=O", "label": "label 0"}
{"compound": "C=C(C)C(=O)OCCOCCOCCOC(=O)C(=C)C", "label": "label 0"}
{"compound": "c1ccc(CN(Cc2ccccc2)Cc2ccccc2)cc1", "label": "label 0"}

---

# procedure text: ATG_NFI_CIS: Attagene CIS-FACTORIAL HepG2 Assay for human Nuclear Factor I (NFI) (AID 2282989)
# setup conditions: HepG2 cis-regulatory reporter, NFI response element transcription; actives raise or lower the signal
Activity calls are given as the source filed them. The calls were made as follows: active = hit-call score of the fitted dose curve at least 0.9, where 1 is the maximum; inactive = score below 0.9.
Outcome codes: active, inactive

{"compound": "CC(C)(C)CC(C)(C)c1ccc(OCCOCC[N+](C)(C)Cc2ccccc2)cc1", "label": "inactive"}
{"compound": "Cc1c(OCC(F)(F)F)ccnc1CS(=O)c1nc2ccccc2[nH]1 (stereo unspecified)", "label": "inactive"}
{"compound": "Cc1ccc(C)o1", "label": "inactive"}
{"compound": "OCC#CCO", "label": "inactive"}
{"compound": "Cc1cc(C)nc(NS(=O)(=O)c2ccc(N)cc2)n1", "label": "inactive"}
{"compound": "CCOC(=O)COC(=O)c1cc(Oc2ccc(C(F)(F)F)cc2Cl)ccc1[N+](=O)[O-]", "label": "inactive"}
{"compound": "O=CN1CCOCC1", "label": "inactive"}
{"compound": "Cc1ncc[nH]1", "label": "inactive"}
{"compound": "CC(CN=Cc1ccccc1O)N=Cc1ccccc1O (stereo unspecified)", "label": "inactive"}
{"compound": "C=C(C#N)C(=O)OCC", "label": "inactive"}
{"compound": "CC(C)(C)C1=CC(=O)C(C(C)(C)C)=CC1=O", "label": "inactive"}
{"compound": "CC(=O)OCCCc1ccccc1", "label": "inactive"}
{"compound": "C=Cc1ccc(C(C)(C)C)cc1", "label": "inactive"}
{"compound": "CN(c1nccc(=O)[nH]1)C1CCN(c2nc3ccccc3n2Cc2ccc(F)cc2)CC1", "label": "inactive"}
{"compound": "CC(C)(N=C=O)c1cccc(C(C)(C)N=C=O)c1", "label": "inactive"}
{"compound": "CC(=O)NCCO", "label": "inactive"}
{"compound": "CC(C)CC(C)CC(O)CC(C)C (stereo unspecified)", "label": "inactive"}
{"compound": "Nc1c(S(=O)(=O)O)cc(Br)c2c1C(=O)c1ccccc1C2=O", "label": "inactive"}
{"compound": "C/C=C(\\C)C(=O)OCCc1ccccc1", "label": "inactive"}
{"compound": "COC(=O)C=C(C)CCC=C(C)C", "label": "inactive"}
{"compound": "Cc1ccc(N)c(S(=O)(=O)O)c1", "label": "inactive"}
{"compound": "CCCCC(CC)COC(=O)c1ccc(O)cc1 (stereo unspecified)", "label": "inactive"}
{"compound": "CCCC(=O)OC(C)(C)Cc1ccccc1", "label": "inactive"}
{"compound": "C=C(C)CNCC", "label": "inactive"}
{"compound": "CCC(=O)O[C@@H]1C[C@H]2CC[C@]1(C)C2(C)C", "label": "inactive"}
{"compound": "CSCCC=O", "label": "inactive"}
{"compound": "CN(C)CCOc1ccc(/C(=C(/CCCl)c2ccccc2)c2ccccc2)cc1", "label": "inactive"}
{"compound": "C1CCCCC1", "label": "inactive"}
{"compound": "CCOC(=O)c1ccc(N)cc1", "label": "inactive"}
{"compound": "O=C1OC2(c3ccccc31)c1ccc(O)c(Br)c1Oc1c2ccc(O)c1Br", "label": "inactive"}
{"compound": "CC(O)C1CCCCC1 (stereo unspecified)", "label": "inactive"}
{"compound": "C=CCCC(=O)/C=C/C1C(C)=CCCC1(C)C (stereo unspecified)", "label": "inactive"}
{"compound": "CS(=O)(=O)c1ccc(Cl)cc1", "label": "inactive"}
{"compound": "O=C(O)CNc1ccccc1", "label": "inactive"}
{"compound": "CCCC(=O)c1ccccc1", "label": "inactive"}
{"compound": "CC(C)CCCCCCCCCCCCCCC(=O)O", "label": "inactive"}
{"compound": "COC(C)(C)CC(C)=O", "label": "inactive"}
{"compound": "C=COCCOCCOC=C", "label": "inactive"}
{"compound": "OCc1cccc(Oc2ccccc2)c1", "label": "inactive"}
{"compound": "COC(C)(C)CCCC(C)CC=O (stereo unspecified)", "label": "inactive"}
{"compound": "CC(=O)O[C@@H]1CC2CCC1(C)C2(C)C (stereo partly specified)", "label": "inactive"}
{"compound": "CCCCCCCCCCCC(=O)OC[C@@H](O)[C@H]1OC[C@H](O)[C@H]1O", "label": "inactive"}
{"compound": "CS(=O)(=O)OCCCCOS(C)(=O)=O", "label": "inactive"}
{"compound": "CC(C)Nc1nc(N)nc(Cl)n1", "label": "inactive"}
{"compound": "O=[N+]([O-])c1cccc(Cl)c1", "label": "inactive"}
{"compound": "NC(=S)NNC(N)=S", "label": "inactive"}
{"compound": "CC(C)CCCCCCc1ccc(OCCOCCO)cc1", "label": "inactive"}
{"compound": "Cc1ccc(S(N)(=O)=O)cc1", "label": "inactive"}
{"compound": "CCOC(=O)CN", "label": "inactive"}
{"compound": "CCOc1ccccc1O", "label": "inactive"}
{"compound": "C=CCOC(=O)CCCCCC", "label": "inactive"}
{"compound": "CCCC(=O)C(CC)Sc1ccoc1C (stereo unspecified)", "label": "inactive"}
{"compound": "CCCCN(CCCC)C(=O)N(CCCC)CCCC", "label": "active"}
{"compound": "CCCC(C)C(O)CC (stereo unspecified)", "label": "inactive"}
{"compound": "CCCCCCC(C)Nc1ccc(Nc2ccccc2)cc1 (stereo unspecified)", "label": "inactive"}
{"compound": "CCCC(O)C(O)CO (stereo unspecified)", "label": "inactive"}
{"compound": "CCOC(=O)CCc1ccccc1", "label": "inactive"}
{"compound": "Cc1c(Cl)cccc1[N+](=O)[O-]", "label": "inactive"}
{"compound": "CCOC(=O)CC(C)O (stereo unspecified)", "label": "inactive"}
{"compound": "CCC(C)c1cc([N+](=O)[O-])cc([N+](=O)[O-])c1OC(=O)OC(C)C (stereo unspecified)", "label": "active"}
{"compound": "C=Cc1ccc(C)cc1", "label": "inactive"}
